Target: T1, rhTIGIT-Avi-His (human, UniProt Q495A1 22-130)
T1 construct: range 22-130; Expressed in Expi 293 cells, Ni-NTA purified; also called rhTIGIT-Avi-His抗原; not shown: C-terminal Avi tag and His tag from vector pCD-Avi-His
T1 sequence (looked up): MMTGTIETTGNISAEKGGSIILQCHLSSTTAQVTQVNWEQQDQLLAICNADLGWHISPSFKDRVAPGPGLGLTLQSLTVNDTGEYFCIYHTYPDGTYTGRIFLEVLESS
Experiment: ELISA, rhTIGIT-Avi-His coated at 0.5 ug/mL, antibody titrated
Listed binders paired with reported EC50
Write the answer as a number in µg/mL, unit excluded.

{"columns": ["BINDER", "EC50 (µg/mL)"],
 "data": [
  ["5TB10 (antibody, V domains shown, also called 全人源抗人TIGIT单抗5TB10) VH: DVQLQESGPGLVKPSETLSLTCTVSGDSVSDAGVGWNWIRQPPGKGLEWIGTIVPRRGITTYNPSLKSRVTISVDTSKNQFSLKLSSVTAADTSVYYCARVTTAGFDYWGQGTLVTVSS VL: DIVLTQSPATLSLSPGERATLSCRASQDVKILLNWYQQKPGQAPRLLIYWTSDRATGVPTRFSGSGSGTDFTLTISSLEPEDFAVYYCQQHLDRLPYTFGQGTKLEIKR", 0.754],
  ["3TB3 (antibody, V domains shown, Parent of D1Y1A; also called 全人源抗人TIGIT单抗3TB3; 野生型3TB3) VH: DVQLQESGPGLVKPSETLSLTCTVSGGSISGGYSWSWIRQPPGKGLEWIGSIVPHRSATSYNPSLKSRVTISVDTSKNQFSLKLSSVTAADTSVYYCARSYGGNRLDYWGQGTLVTVSS VL: DIVLTQSPATLSLSPGERATLSCRASQGVGIRLSWYQQKPGQAPRLLIYYTAYRATGVPTRFSGSGSGTDFTLTISSLEPEDFAVYYCLQTFGDPYTFGQGTKLEIKR", 0.0307],
  ["TBB8 (antibody, V domains shown, also called 全人源抗人TIGIT单抗TBB8) VH: DVQLQESGPGLVKPSETLSLTCTVSGYSISTGYAWSWIRQPPGKGLEWIGSISAFGGNTYYNPSLKSRVTISVDTSKNQFSLKLSSVTAADTSVYYCARTARWIAFDYWGQGTLVTVSS VL: DIVLTQSPATLSLSPGERATLSCRASQDIGVSLNWYQQKPGQAPRLLIYWTSFRATGVPTRFSGSGSGTDFTLTISSLEPEDFAVYYCQQANGVPLFTFGQGTKLEIKR", 0.28]
]}

Query: EC50 for TDC8 (antibody, V domains shown, also called 全人源抗人TIGIT单抗TDC8) VH: DVQLQESGPGLVKPSETLSLTCTVSGGSISSKGFTWSWIRQPPGKGLEWIGQISPLDSSTSYNPSLKSRVTISVDTSKNQFSLKLSSVTAADTSVYYCARGIWTYLYGFDYWGQGTLVTVSS VL: DIVLTQSPATLSLSPGERATLSCRASQSIHAGYLAWYQQKPGQAPRLLIYWTNLRATGVPTRFSGSGSGTDFTLTISSLEPEDFAVYYCLQLMRYPPTFGQGTKLEIKR ?
Response: 0.293
